Just for reference, ChEMBL document CHEMBL4715849 is where these values come from.

assay: Inhibition of Candida albicans GFA1 using D-Fru6P and L-glutamine as substrate by absorbance method
READOUT TYPE: IC50 (µM)
Please state the figure in µM; there is no need to write the unit.

Query: For the compound shown here, N[C@H]1C(O)O[C@H](CS(=O)(=O)O)[C@@H](O)[C@@H]1O (some centres not stated) , give the reported IC50.
Response: 80

* * *

test: Solubility in water at pH 7.2; type: physicochemical
READOUT TYPE: solubility

Query: Consider the compound shown here: COc1cc(O)c2c(c1)C(=O)c1c(cc3c(c1O)-c1c(cc(C)c(C(=O)N[C@H](CO)C(=O)O)c1O)[C@H](O[C@@H]1O[C@H](C)[C@H](N(C)C)[C@H](O[C@@H]4OC[C@@H](O)[C@H](O)[C@H]4O)[C@H]1O)[C@H]3O)C2=O What is its recorded solubility?
Response: > 20 mg/mL

* * *

assay: Half life in human at 50 mg by liquid chromatography-tandem mass spectrometry method; type: ADME; details: in vivo
READOUT TYPE: half-life

Query: If you can, please state the reported half-life value of CC(=O)[O-].CCCCCOc1ccc(-c2ccc(-c3ccc(C(=O)N[C@H]4C[C@@H](O)[C@@H](NCC[N+](C)(C)C)NC(=O)[C@@H]5[C@@H](O)[C@@H](C)CN5C(=O)[C@H]([C@@H](C)O)NC(=O)[C@H]([C@H](O)[C@@H](O)c5ccc(O)cc5)NC(=O)[C@@H]5C[C@@H](O)CN5C(=O)[C@H]([C@@H](C)O)NC4=O)cc3)cc2)cc1 .
Response: > 130 h

* * *

Target: UniProtKB P30572
Sequence (P30572 whole entry): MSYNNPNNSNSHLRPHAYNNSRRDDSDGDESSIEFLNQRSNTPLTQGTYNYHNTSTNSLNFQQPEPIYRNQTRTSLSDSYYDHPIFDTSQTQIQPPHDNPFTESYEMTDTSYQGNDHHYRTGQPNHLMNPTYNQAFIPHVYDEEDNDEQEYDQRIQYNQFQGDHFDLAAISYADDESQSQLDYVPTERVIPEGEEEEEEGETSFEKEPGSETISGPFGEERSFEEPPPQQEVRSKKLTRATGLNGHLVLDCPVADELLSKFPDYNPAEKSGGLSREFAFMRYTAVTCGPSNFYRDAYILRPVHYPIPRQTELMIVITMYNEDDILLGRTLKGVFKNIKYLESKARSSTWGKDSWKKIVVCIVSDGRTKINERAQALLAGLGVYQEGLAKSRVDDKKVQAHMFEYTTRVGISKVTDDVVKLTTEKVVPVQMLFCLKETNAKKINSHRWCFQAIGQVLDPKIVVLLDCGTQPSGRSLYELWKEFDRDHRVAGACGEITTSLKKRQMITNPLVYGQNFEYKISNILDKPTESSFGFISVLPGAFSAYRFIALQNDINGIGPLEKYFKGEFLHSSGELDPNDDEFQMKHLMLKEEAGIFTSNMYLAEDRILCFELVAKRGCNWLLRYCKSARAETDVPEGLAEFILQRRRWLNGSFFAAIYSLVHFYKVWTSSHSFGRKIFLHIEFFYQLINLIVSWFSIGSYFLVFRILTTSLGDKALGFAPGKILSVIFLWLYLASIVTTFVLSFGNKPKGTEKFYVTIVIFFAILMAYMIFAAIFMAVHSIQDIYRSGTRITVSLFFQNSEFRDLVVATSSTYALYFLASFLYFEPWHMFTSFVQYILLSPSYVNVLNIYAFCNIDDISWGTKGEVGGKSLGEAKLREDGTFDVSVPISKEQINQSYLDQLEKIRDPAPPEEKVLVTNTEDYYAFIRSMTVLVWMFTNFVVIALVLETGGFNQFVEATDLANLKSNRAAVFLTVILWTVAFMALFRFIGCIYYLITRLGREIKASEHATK
Test: Inhibition of Chitin synthase 2 in Candida albicans (chs3del::hisG/chs3del::hisG) microsomes using UDP-[U14C]-GlcNac as substrate
READOUT TYPE: pIC50
Please treat pIC50 as minus the base-10 logarithm of the molar concentration.

Query: So what's the measured pIC50 for this one? COc1ccc2c(Cc3ccc(C(C)(C)C)cc3)c3[n+](cc2c1OC)CCc1cc2c(cc1-3)OCO2
Response: 4.66

* * *

Reported MIC values are given for each entry in this list.
tested on: Candida albicans; test: Antifungal activity against Candida albicans ATCC 10231 by CLSI-based serial dilution method; type: functional
Report the figure in µg/mL without appending any unit label.

Some entries whose results are on file:
Query: Given CC(=O)N[C@H]1C(O)O[C@H](CS(=O)(=O)O)[C@@H](O)[C@@H]1O (stereo partly specified) , state its recorded MIC.
Response: 500

Query: What does the record list as MIC for N[C@H]1C(O)O[C@H](CS(=O)(=O)O)[C@@H](O)[C@@H]1O (stereo partly specified) ?
Response: 1000

Query: May I ask what MIC has been recorded for CC(=O)N[C@@H](CO)[C@@H](O)[C@H](O)[C@H](O)CS(=O)(=O)O ?
Response: 1000

Turning now to a further compound:
Query: // returns reported MIC for input N[C@@H](CO)[C@@H](O)[C@H](O)[C@H](O)CS(=O)(=O)O
Response: 1000

* * *

assay: Inhibition of Saccharomyces cerevisiae CTS1 incubated for 70 mins by fluorescence method
READOUT TYPE: IC50 (nM)
Response body: numeric value in nM, unit text excluded.

Query: Request the reported IC50 associated with COc1ccccc1-c1noc2nc(C)[nH]c(=O)c12
Response: 500

Consider the record given below.
Query: Entry Cc1ccc(OCC(O)CNC2Cc3ccccc3C2)cc1C (configuration not stated) : reported IC50 = ?
Response: 2400

* * *

assay: Inhibition of Saccharomyces cerevisiae CGMCC 2.145 CHS using UDP-GlcNAc as substrate incubated for 60 min by WGA-HRP tracer based method
READOUT TYPE: pIC50
Reminder that pIC50 means the negative base-10 logarithm of the concentration expressed in mol/L.

Query: Entry under review: COc1ccc(N2CCN(C(=O)[C@H](O)[C@@H](O)C(=O)Nc3c(O)c4cc(O)ccc4oc3=O)CC2)cc1 . Reported pIC50?
Response: 4.00

* * *

test: Competitive inhibition of Candida albicans AMB-25 glucosamine synthetase using glutamine as substrate incubated for 30 mins by Lineweaver-Burk plot based Dixon plot analysis
READOUT TYPE: pKi
In plain terms, pKi is the concentration in mol/L turned into minus its base-10 logarithm.

Query: State the recorded pKi for this entry: COC(=O)/C=C/C(=O)NC[C@H](N)C(=O)O
Response: 7.00

* * *

assay: Half life in Beagle dog at 1.4 mg/kg, iv measured up to 72 hrs by LC-MS/MS analysis; assay type: ADME, organism-based, Canis lupus familiaris; settings: in vivo
READOUT TYPE: half-life (h)
Your answer is read as h, so omit the unit and give the number.

Query: GET /values?readout=half-life&item= CC(=O)[O-].CCCCCOc1ccc(-c2ccc(-c3ccc(C(=O)N[C@H]4C[C@@H](O)[C@@H](NCC[N+](C)(C)C)NC(=O)[C@@H]5[C@@H](O)[C@@H](C)CN5C(=O)[C@H]([C@@H](C)O)NC(=O)[C@H]([C@H](O)[C@@H](O)c5ccc(O)cc5)NC(=O)[C@@H]5C[C@@H](O)CN5C(=O)[C@H]([C@@H](C)O)NC4=O)cc3)cc2)cc1
Response: 53.1

* * *

target: Chitotriosidase-1 (Homo sapiens)
Sequence (Q13231 whole entry): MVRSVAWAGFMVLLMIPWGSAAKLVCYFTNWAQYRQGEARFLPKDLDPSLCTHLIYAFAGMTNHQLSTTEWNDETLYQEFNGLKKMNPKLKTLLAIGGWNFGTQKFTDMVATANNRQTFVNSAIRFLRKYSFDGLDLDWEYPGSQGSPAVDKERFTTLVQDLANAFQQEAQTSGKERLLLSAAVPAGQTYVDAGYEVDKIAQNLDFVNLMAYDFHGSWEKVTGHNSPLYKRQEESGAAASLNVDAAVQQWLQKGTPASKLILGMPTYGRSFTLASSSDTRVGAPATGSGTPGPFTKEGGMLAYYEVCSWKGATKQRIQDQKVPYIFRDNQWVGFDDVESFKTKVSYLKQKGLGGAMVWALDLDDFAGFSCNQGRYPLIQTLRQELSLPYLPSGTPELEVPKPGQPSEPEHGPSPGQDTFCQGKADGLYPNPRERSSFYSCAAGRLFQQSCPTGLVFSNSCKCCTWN
READOUT TYPE: IC50

Query: Fill blank: measured IC50 of the compound COc1ccccc1-c1noc2nc(C)[nH]c(=O)c12 is ____.
Response: > 100 µM

* * *

experiment: Inhibition of Mucor flavus IFO9560 chitin synthase incubated for 6 to 20 hrs by Lineweaver-Burk analysis
READOUT TYPE: Ki (µM)
Please state the figure in µM; there is no need to write the unit.

Query: Which Ki reading was recorded for the compound C[C@@H]1C[C@H]2O[C@@H]2/C=C\C=C\C(=O)Cc2c(Cl)c(O)cc(O)c2C(=O)O1 ?
Response: 87

* * *

# Lookup of reported MIC keyed by entry
system: Candida albicans; test: Antifungal activity against Candida albicans Ca2323/ORF6.945 by CLSI method; type: functional
Quick note: give the figure in µg/mL, leave out the unit.

Worked cases, answers included:
Query: Requested read-out: MIC. Entry: COc1ccc(NC(=O)COc2cccc(OCC(C)C)c2)cc1
Response: 4

Query: Quick check: MIC of Nc1ccccc1C(=O)OCC#CCOC(=O)c1ccccc1N ?
Response: 4

Query: Which MIC value is on record for C=C1[C@@H]2C[C@@H]3[C@H](C(C)C)[C@@H](OC(=O)CC(C)(O)CC(C)CC)C[C@@]3(C)C[C@H]2/C(C)=C\C[C@@H]2[C@@H](C)OC(=O)[C@H](O)[C@]12O (some centres undefined) ?
Response: 0.5

***
Query: Entry under review: CCCC(C)Oc1cccc(NC(=O)c2cccnc2)c1 (centres undefined) . Reported MIC?
Response: 4

* * *

assay: Inhibition of Candida albicans GWT1 expressed in Saccharomyces cerevisiae using UDP-GlcNAc as substrate incubated for 20 mins followed by palmitoyl-CoA addition and measured after 2 hrs by TLC-based autography
READOUT TYPE: pIC50
Lab note — pIC50 values are minus log10 of concentrations in M.

Query: Sample Nc1ncccc1-c1cc(Cc2ccc(COc3ccccn3)cc2)no1 [MANOGEPIX] — what was its pIC50?
Response: 6.57
